# Tested on: UACC-257 melanoma
# Method notes: NCI tumour cell line growth inhibition, 48 h
Reported TGI by item:

Molecule	Inequality sign	TGI [µM]
CC(C)C[C@H](NC(=O)[C@H](Cc1ccccc1)NC(=O)CCc1ccccc1)B(O)O	<	0.01
O=[N+]([O-])c1ccc(-c2nc3ccc([N+](=O)[O-])cc3[nH]2)cc1	>	100
CCCCCc1nc2c(c3c1CCCC3)CCCC2	=	31.6
COC(=O)C1=C(C)NC(C)=C(C(=O)OC)C1/C=C(\Cl)c1ccc(Cl)c(Cl)c1	=	36.1
C/C=C/C/C=C/CCC(=O)[C@H]1O[C@H]1C(N)=O	=	27.3
N#Cc1ncc(-c2ccc(C(F)(F)F)cc2)c(NCc2cc(C(F)(F)F)cc(C(F)(F)F)c2)n1	=	9.92
CC1OC(n2ccc(=O)[nH]c2=O)C=C(OC(=O)c2ccccc2)C1=O (stereo not drawn)	>	100
CCN1C=C/C(=C\C=C/c2cc[n+](CC)c3ccccc23)c2ccccc21	=	9.76
